B1: GFP aptamer (parent)
chain: GCUUCUGGACUGCGAUGGGAGCACGAAACGUCGUGGCGCAAUUGGGUGGGGAAAGUCCUUAAAAGAGGGCCACCACAGAAGC

Variants of: B1
Assay: HiTS-RAP
Conditions: with EGFP
Record form. Attribute: Kd. Fill in for each entry.
Numbers only, in nM.

Examples with answers:
A20G A79G : 37.9
C29A : 3.32
A23G A26G : 35.8
G8C : 61.5
A9G A27G : 21
G49U : 11.1

Hi team, please reply with Kd for each item in this list.
1. C13U A41G
2. U42A

10
31.8

Go through the items and report each one's Kd.
1. G51U
2. G49A
3. A23G C74U
4. U31C A41G
5. A63G
6. G46A

1: 28.8; 2: 21.5; 3: 2.27; 4: 3.04; 5: 8.55; 6: 18.7

Go through the list and state Kd for each entry.
1. G30A
2. A54G
3. C10U C13U

1. 4.37
2. 65.4
3. 15.1
